Hey, just so you know, these numbers are from patent US20070049564A1.

Listing of recorded MIC by entry.
# Tested on: S. pneumoniae* GC 4465
# testDescription: MIC, broth microdilution
# conditions: Streptococcus pneumoniae, S. pneumoniae* GC 4465; Mouse Serum pre-incubation

Answered examples (5):
1) CCCN(CC(=O)Nc1cc(N(C)C)c2c(c1O)C(=O)C1=C(O)[C@]3(O)C(=O)C(C(N)=O)=C(O)[C@@H](N(C)C)[C@@H]3C[C@@H]1C2)C(=O)OCC(C)C | 4 µg/mL
2) CCCN(CC(=O)Nc1cc(N(C)C)c2c(c1O)C(=O)C1=C(O)[C@]3(O)C(=O)C(C(N)=O)=C(O)[C@@H](N(C)C)[C@@H]3C[C@@H]1C2)C(=O)OCOC(=O)Cc1ccccc1 | < 0.06 µg/mL
3) CCCCN(CC(=O)Nc1cc(N(C)C)c2c(c1O)C(=O)C1=C(O)[C@]3(O)C(=O)C(C(N)=O)=C(O)[C@@H](N(C)C)[C@@H]3C[C@@H]1C2)C(=O)OCOC(=O)Cc1ccccc1 | < 0.06 µg/mL
4) CCCN(CC(=O)Nc1cc(N(C)C)c2c(c1O)C(=O)C1=C(O)[C@]3(O)C(=O)C(C(N)=O)=C(O)[C@@H](N(C)C)[C@@H]3C[C@@H]1C2)C(=O)OCOC(=O)c1ccc(F)cc1 | < 0.06 µg/mL
5) CCCN(CC(=O)Nc1cc(N(C)C)c2c(c1O)C(=O)C1=C(O)[C@]3(O)C(=O)C(C(N)=O)=C(O)[C@@H](N(C)C)[C@@H]3C[C@@H]1C2)C(=O)OCOC(=O)C1CCC1 | 0.25 µg/mL

Next molecule, please.
Data request: Give the reported value of MIC for this record: CCCN(CC(=O)Nc1cc(N(C)C)c2c(c1O)C(=O)C1=C(O)[C@]3(O)C(=O)C(C(N)=O)=C(O)[C@@H](N(C)C)[C@@H]3C[C@@H]1C2)C(=O)OCOC(=O)C(C)C
Data returned: < 0.06 µg/mL

* * *

# Test system: S. pyogenes GC 4563
# testDescription: MIC, broth microdilution
# conditions: Streptococcus pyogenes, GC4563, S. pyogenes GC 4563; Water pre-incubation
endpointLabel: MIC (µg/mL)
Number only, in µg/mL; omit the unit.

1) CCCN(CC(=O)Nc1cc(N(C)C)c2c(c1O)C(=O)C1=C(O)[C@]3(O)C(=O)C(C(N)=O)=C(O)[C@@H](N(C)C)[C@@H]3C[C@@H]1C2)C(=O)OCOC(=O)c1ccc(F)cc1 | 0.5
2) CCCN(CC(=O)Nc1cc(N(C)C)c2c(c1O)C(=O)C1=C(O)[C@]3(O)C(=O)C(C(N)=O)=C(O)[C@@H](N(C)C)[C@@H]3C[C@@H]1C2)C(=O)OCc1ccccc1 | 4
3) CCCN(CC(=O)Nc1cc(N(C)C)c2c(c1O)C(=O)C1=C(O)[C@]3(O)C(=O)C(C(N)=O)=C(O)[C@@H](N(C)C)[C@@H]3C[C@@H]1C2)C(=O)OCOC(=O)c1ccc(C)cc1 | 0.25
4) CCCCN(CC(=O)Nc1cc(N(C)C)c2c(c1O)C(=O)C1=C(O)[C@]3(O)C(=O)C(C(N)=O)=C(O)[C@@H](N(C)C)[C@@H]3C[C@@H]1C2)C(=O)OCOC(=O)c1ccc(F)cc1 | 0.25

Next compound, please.
Data request: Give the reported value of MIC for this record: CCCCN(CC(=O)Nc1cc(N(C)C)c2c(c1O)C(=O)C1=C(O)[C@]3(O)C(=O)C(C(N)=O)=C(O)[C@@H](N(C)C)C3CC1C2)C(=O)OCOC(=O)c1ccc(C)cc1 (stereo partly drawn)
Data returned: 0.25

* * *

# Tested on: E. coli GC 2232
# testDescription: MIC, broth microdilution
# conditions: Escherichia coli, GC2232, E. coli GC 2232; Mouse Serum pre-incubation
endpointLabel: MIC (µg/mL)
Number only, in µg/mL; omit the unit.

1. CCCN(CC(=O)Nc1cc(N(C)C)c2c(c1O)C(=O)C1=C(O)[C@]3(O)C(=O)C(C(N)=O)=C(O)[C@@H](N(C)C)[C@@H]3C[C@@H]1C2)C(=O)OCOC(=O)c1ccc(F)cc1 | 1

Next compound, please.
Data request: Give the reported value of MIC for this record: CCCCN(CC(=O)Nc1cc(N(C)C)c2c(c1O)C(=O)C1=C(O)[C@]3(O)C(=O)C(C(N)=O)=C(O)[C@@H](N(C)C)C3CC1C2)C(=O)OCOC(=O)C(C)C (some centres unmarked)
Data returned: 0.5

* * *

Listing of recorded MIC by entry.
# System: E. coli GC 4559
# testDescription: MIC, broth microdilution
# conditions: Escherichia coli, GC4559, E. coli GC 4559; Mouse Serum pre-incubation
Number only, in µg/mL; omit the unit.

Answered examples (3):
1. CCCCN(CC(=O)Nc1cc(N(C)C)c2c(c1O)C(=O)C1=C(O)[C@]3(O)C(=O)C(C(N)=O)=C(O)[C@@H](N(C)C)[C@@H]3C[C@@H]1C2)C(=O)OCOC(=O)c1ccc(F)cc1 | 2
2. CCCN(CC(=O)Nc1cc(N(C)C)c2c(c1O)C(=O)C1=C(O)[C@]3(O)C(=O)C(C(N)=O)=C(O)[C@@H](N(C)C)[C@@H]3C[C@@H]1C2)C(=O)OCOC(=O)Cc1ccccc1 | 0.5
3. CCCN(CC(=O)Nc1cc(N(C)C)c2c(c1O)C(=O)C1=C(O)[C@]3(O)C(=O)C(C(N)=O)=C(O)[C@@H](N(C)C)[C@@H]3C[C@@H]1C2)C(=O)OCOC(=O)C(C)C | 0.5

Data request: Give the reported value of MIC for this record: CCCN(CC(=O)Nc1cc(N(C)C)c2c(c1O)C(=O)C1=C(O)[C@]3(O)C(=O)C(C(N)=O)=C(O)[C@@H](N(C)C)[C@@H]3C[C@@H]1C2)C(=O)OCOC(=O)C1CCC1
Data returned: 1

* * *

# Tested on: E. coli GC 2235
# testDescription: MIC, broth microdilution
# conditions: Escherichia coli, GC2235, E. coli GC 2235; Mouse Serum pre-incubation
endpointLabel: MIC

Answered examples (4):
1. CCCCN(CC(=O)Nc1cc(N(C)C)c2c(c1O)C(=O)C1=C(O)[C@]3(O)C(=O)C(C(N)=O)=C(O)[C@@H](N(C)C)[C@@H]3C[C@@H]1C2)C(=O)OCOC(=O)c1ccc(F)cc1 | 1 µg/mL
2. CCCN(CC(=O)Nc1cc(N(C)C)c2c(c1O)C(=O)C1=C(O)[C@]3(O)C(=O)C(C(N)=O)=C(O)[C@@H](N(C)C)[C@@H]3C[C@@H]1C2)C(=O)OCOC(=O)C(C)(C)C | 0.5 µg/mL
3. CCCN(CC(=O)Nc1cc(N(C)C)c2c(c1O)C(=O)C1=C(O)[C@]3(O)C(=O)C(C(N)=O)=C(O)[C@@H](N(C)C)[C@@H]3C[C@@H]1C2)C(=O)OCOC(=O)c1ccc(C)cc1 | 1 µg/mL
4. CCCN(CC(=O)Nc1cc(N(C)C)c2c(c1O)C(=O)C1=C(O)[C@]3(O)C(=O)C(C(N)=O)=C(O)[C@@H](N(C)C)[C@@H]3C[C@@H]1C2)C(=O)OCOC(=O)C1CCC1 | 0.5 µg/mL

Next molecule, please.
Data request: Give the reported value of MIC for this record: CCCCN(CC(=O)Nc1cc(N(C)C)c2c(c1O)C(=O)C1=C(O)[C@]3(O)C(=O)C(C(N)=O)=C(O)[C@@H](N(C)C)[C@@H]3C[C@@H]1C2)C(=O)OCOC(=O)Cc1ccccc1
Data returned: 1 µg/mL

* * *

Listing of recorded MIC by entry.
# Test system: E. coli GC 2234
# testDescription: MIC, broth microdilution
# conditions: Escherichia coli, GC2234, read-out: MINIMAL INHIBITORY CONCENTRATION MIC, Water
Number only, in µg/mL; omit the unit.

Answered examples (2):
1) CCCCCCC(=O)OCOC(=O)N(CC(=O)Nc1cc(N(C)C)c2c(c1O)C(=O)C1=C(O)[C@]3(O)C(=O)C(C(N)=O)=C(O)[C@@H](N(C)C)[C@@H]3C[C@@H]1C2)C(C)(C)C | 64
2) CN(C)c1cc(NC(=O)CN(C(=O)OCOC(=O)C2CCCCC2)C(C)(C)C)c(O)c2c1C[C@H]1C[C@H]3[C@H](N(C)C)C(O)=C(C(N)=O)C(=O)[C@@]3(O)C(O)=C1C2=O | 64

Next molecule, please.
Data request: Give measured MIC for CC(C)CC(=O)OCOC(=O)N(CC(=O)Nc1cc(N(C)C)c2c(c1O)C(=O)C1=C(O)[C@]3(O)C(=O)C(C(N)=O)=C(O)[C@@H](N(C)C)[C@@H]3C[C@@H]1C2)C(C)(C)C (E. coli GC 2234).
Data returned: 16

* * *

Listing of recorded MIC by entry.
# Test system: S. aureus GC 6469
# testDescription: MIC, broth microdilution
# conditions: Staphylococcus aureus, GC6469, read-out: MINIMAL INHIBITORY CONCENTRATION MIC, pre-incubated in Water

1) CCCN(CC(=O)Nc1cc(N(C)C)c2c(c1O)C(=O)C1=C(O)[C@]3(O)C(=O)C(C(N)=O)=C(O)[C@@H](N(C)C)[C@@H]3C[C@@H]1C2)C(=O)OCOC(=O)c1cc(C)cc(C)c1 | 2 µg/mL

Next molecule, please.
Data request: Give the reported value of MIC for this record: CCCCN(CC(=O)Nc1cc(N(C)C)c2c(c1O)C(=O)C1=C(O)[C@]3(O)C(=O)C(C(N)=O)=C(O)[C@@H](N(C)C)[C@@H]3C[C@@H]1C2)C(=O)OCOC(=O)c1ccc(-c2ccccc2)cc1
Data returned: > 64 µg/mL
